Molecular target: Glucocorticoid receptor (Homo sapiens) (UniProt P04150)
Sequence (P04150 whole entry, looked up): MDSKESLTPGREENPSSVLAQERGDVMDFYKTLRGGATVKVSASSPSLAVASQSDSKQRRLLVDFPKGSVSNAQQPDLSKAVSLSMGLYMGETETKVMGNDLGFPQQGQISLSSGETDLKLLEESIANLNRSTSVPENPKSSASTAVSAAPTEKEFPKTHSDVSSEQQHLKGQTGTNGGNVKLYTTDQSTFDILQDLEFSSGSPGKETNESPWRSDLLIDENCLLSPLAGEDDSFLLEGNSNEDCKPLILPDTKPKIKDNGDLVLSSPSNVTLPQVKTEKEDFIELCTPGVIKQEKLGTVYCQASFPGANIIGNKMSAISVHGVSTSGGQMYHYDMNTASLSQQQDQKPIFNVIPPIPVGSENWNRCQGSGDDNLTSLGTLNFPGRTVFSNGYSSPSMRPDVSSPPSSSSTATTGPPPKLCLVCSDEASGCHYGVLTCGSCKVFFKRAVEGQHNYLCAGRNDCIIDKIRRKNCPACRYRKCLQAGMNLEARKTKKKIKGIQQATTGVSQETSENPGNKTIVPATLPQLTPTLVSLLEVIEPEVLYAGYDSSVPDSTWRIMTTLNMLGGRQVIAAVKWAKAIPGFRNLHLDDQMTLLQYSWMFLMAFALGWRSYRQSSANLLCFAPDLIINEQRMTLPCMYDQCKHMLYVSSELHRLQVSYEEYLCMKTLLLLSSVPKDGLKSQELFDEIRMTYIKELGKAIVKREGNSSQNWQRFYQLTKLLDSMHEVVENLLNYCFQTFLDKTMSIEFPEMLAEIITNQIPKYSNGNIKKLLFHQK
Test: GR-GFP Redistribution (AID 450); further: potency means the concentration at half of the fitted maximal effect
Details: U2OS GR-GFP nuclear translocation, laser cytometry, 2 h
Calls of active or inactive are those of the source.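 How the source made its calls: active means compounds whose dose series gives a full or clear partial fitted curve of increased nuclear translocation; inconclusive means weak partial curve or effect only at the top dose; inactive means no dose-dependent translocation response.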
Reported Potency values are given for each entry in this list.

{"smiles_repr": "Nc1ccc(C2(c3ccc(N)cc3)CN3CCC2CC3)cc1", "Potency": "> 20.6 µM (inactive)"}
{"smiles_repr": "CCOC(=O)C1=C(C)OC(N)=C(C(=O)OCC)[C@@]12C(=O)N(CC(N)=O)c1ccccc12", "Potency": "> 20.6 µM (inactive)"}
{"smiles_repr": "O=C(CCCN1CCC2(CC1)C(=O)N(CCc1ccc(N=C=S)cc1)CN2c1ccccc1)c1ccc(F)cc1", "Potency": "> 46 µM (inactive)"}
{"smiles_repr": "Oc1cc2c(cc1O)[C@H]1c3ccccc3CN[C@H]1CC2", "Potency": "> 46 µM (inactive)"}
{"smiles_repr": "O=C(c1ccco1)C12CN3CN(CN(C3)C1)C2", "Potency": "> 20.6 µM (inactive)"}

Source of measurements: PubChem BioAssay (NCATS)
